What IC50 at 72 h was measured for each of the following?
experiment: Antiproliferative activity against human LO2 cells assessed as inhibition of cell proliferation incubated for 72 hrs by MTT assay; assay type: toxicity, cell-based, L02
One number for each entry, in µM.

CC(C)[C@]12O[C@H]1[C@@H]1O[C@]13[C@]1(O[C@H]1C[C@H]1C4=C(CC[C@@]13C)C(=O)OC4)[C@@H]2O [TRIPTOLIDE]: 0.04
CC(C)[C@]12O[C@H]1[C@@H]1O[C@@]13[C@@]1(C)CCC4=C(COC4=S)[C@@H]1C[C@@H]1O[C@@]13C2=O: 3.35
CC(C)[C@]12O[C@H]1[C@@H]1O[C@]13[C@]1(O[C@H]1C[C@H]1C4=C(CC[C@@]13C)C(=S)OC4)[C@@H]2O: 2.86

API: the following record is the query input.
What value of IC50 at 72 h has been reported for the following molecule? "CC(C)[C@]12O[C@H]1[C@@H]1O[C@]13[C@]1(O[C@H]1C[C@H]1C4=C(CC[C@@]13C)C(=S)OC4)[C@H]2O"
6.91

Reference source for all entries: ChEMBL document CHEMBL6114967
